assay: Continuous infusion study pharmacokinetics (plasma); format: in vivo, human; details: human, plasma, iv, 2 mg/h, Rate 2 mg/h; 338 h; Mean; read-out: EMD 121974 Concentrations, Mean
observable: level at 338 h (ng/mL)
Answers are plain numbers, in ng/mL.

Documented level at 338 h of CC(C)[C@H]1C(=O)N[C@@H](CCCN=C(N)N)C(=O)NCC(=O)N[C@@H](CC(=O)O)C(=O)N[C@H](Cc2ccccc2)C(=O)N1C [Cilengitide, cyclo-(Arg-Gly-Asp-DPhe-NMeVal)] : 360

###

test: Continuous infusion study pharmacokinetics (plasma); assay type: in vivo, human; conditions: human, plasma, iv, 4 mg/h, Rate 4 mg/h; 170 h; Mean; read-out: EMD 121974 Concentrations, Mean
observable: level at 170 h (ng/mL)
Answers are plain numbers, in ng/mL.

Documented level at 170 h of CC(C)[C@H]1C(=O)N[C@@H](CCCN=C(N)N)C(=O)NCC(=O)N[C@@H](CC(=O)O)C(=O)N[C@H](Cc2ccccc2)C(=O)N1C [Cilengitide, cyclo-(Arg-Gly-Asp-DPhe-NMeVal)] : 516

###

experiment: Continuous infusion study pharmacokinetics (plasma); assay type: in vivo, human; conditions: human, plasma, iv, 12 mg/h, Rate 12 mg/h; 2 h; Mean; read-out: EMD 121974 Concentrations, Mean
observable: level at 2 h (ng/mL)
Numbers only, in ng/mL.

Documented level at 2 h of CC(C)[C@H]1C(=O)N[C@@H](CCCN=C(N)N)C(=O)NCC(=O)N[C@@H](CC(=O)O)C(=O)N[C@H](Cc2ccccc2)C(=O)N1C [Cilengitide, cyclo-(Arg-Gly-Asp-DPhe-NMeVal)] : 499

###

assay: Continuous infusion study pharmacokinetics (plasma); format: in vivo, human; settings: human, plasma, iv, 4 mg/h, Rate 4 mg/h; 338 h; Mean; read-out: EMD 121974 Concentrations, Mean
observable: level at 338 h (ng/mL)
Numbers only, in ng/mL.

Documented level at 338 h of CC(C)[C@H]1C(=O)N[C@@H](CCCN=C(N)N)C(=O)NCC(=O)N[C@@H](CC(=O)O)C(=O)N[C@H](Cc2ccccc2)C(=O)N1C [Cilengitide, cyclo-(Arg-Gly-Asp-DPhe-NMeVal)] : 559

###

experiment: Continuous infusion study pharmacokinetics (plasma); type: in vivo, human; conditions: human, plasma, iv, 8 mg/h, Rate 8 mg/h; 504 h; Mean; read-out: EMD 121974 Concentrations, Mean
observable: level at 504 h (ng/mL)
One number for each entry, in ng/mL.

Documented level at 504 h of CC(C)[C@H]1C(=O)N[C@@H](CCCN=C(N)N)C(=O)NCC(=O)N[C@@H](CC(=O)O)C(=O)N[C@H](Cc2ccccc2)C(=O)N1C [Cilengitide, cyclo-(Arg-Gly-Asp-DPhe-NMeVal)] : 1630

###

assay: Continuous infusion study pharmacokinetics (plasma); type: in vivo, human; conditions: human, plasma, iv, 12 mg/h, Rate 12 mg/h; 338 h; Mean; read-out: EMD 121974 Concentrations, Mean
observable: level at 338 h (ng/mL)
Answers are plain numbers, in ng/mL.

Documented level at 338 h of CC(C)[C@H]1C(=O)N[C@@H](CCCN=C(N)N)C(=O)NCC(=O)N[C@@H](CC(=O)O)C(=O)N[C@H](Cc2ccccc2)C(=O)N1C [Cilengitide, cyclo-(Arg-Gly-Asp-DPhe-NMeVal)] : 1670

Ref: patent US20120130146A1
